Source: PubChem BioAssay AID1626

# Tested on: M. tuberculosis H37Rv growth inhibition
# measurement-description: M. tuberculosis H37Rv growth inhibitors, H37Rv strain (AID 1626)
# particulars: measured here: IC90 against H37Rv
Reported values of IC90 for individual entries

Input: Field: IC90 (M. tuberculosis H37Rv growth inhibition). Entry: O=C(C[n+]1cc(-c2ccccc2)n2c1CCC2)N1c2ccccc2Sc2ccccc21
Output: > 100 µM

Input: Recorded IC90 for N=C1SC(c2ccccc2)C(=O)N1c1ncc(Cc2ccccc2Cl)s1 (centres undefined) with M. tuberculosis H37Rv growth inhibition, please?
Output: > 100 µM

Input: Checklist item: IC90 tested on M. tuberculosis H37Rv growth inhibition, entry Cc1ccc(C(=O)CC(SCC(=O)O)c2ccc([N+](=O)[O-])cc2)cc1 (centres undefined) , value?
Output: > 100 µM

Input: Query IC90 on M. tuberculosis H37Rv growth inhibition for CCCCCC(=O)c1ccc(O)cc1O
Output: > 100 µM

Input: Query the reported IC90 for M. tuberculosis H37Rv growth inhibition; item: C=CCOc1ccc(CN(C)Cc2nc3cc(C(F)(F)F)ccc3c(=O)[nH]2)cc1
Output: > 100 µM

Input: Find the measured IC90: item CCCOC(=O)c1ccc(NC(=O)COC)cc1 , target or system M. tuberculosis H37Rv growth inhibition.
Output: > 100 µM

Input: Lab note: need IC90 with M. tuberculosis H37Rv growth inhibition for entry CCOc1ccc(NC(=O)CCSc2ccc3ccccc3n2)cc1 , please look it up.
Output: > 100 µM

Input: Find IC90 (M. tuberculosis H37Rv growth inhibition) for the entry COc1ccc(NC2=NCC(Cc3ccc(Br)cc3)S2)cc1 (centres undefined)
Output: 15.9 µM

Input: GET /values?readout=IC90&system=M. tuberculosis H37Rv growth inhibition&item= Cc1ccc(NC(=O)c2sc3nc(C)nc(N4CCN(c5ccccn5)CC4)c3c2C)c(C)c1
Output: > 100 µM

Input: Which IC90 is reported with M. tuberculosis H37Rv growth inhibition for this entry: COc1ccc(N=Cc2cc(Cl)ccc2O)cc1Cl ?
Output: > 100 µM

Input: Recorded IC90 for CCc1cccc2c(C(=O)COC(=O)c3ccc([N+](=O)[O-])s3)c[nH]c12 with M. tuberculosis H37Rv growth inhibition, please?
Output: 0.99 µM

Input: Recorded IC90 for CCOC(=O)c1ccc(NC(=O)c2cc3c(s2)CCC3)cc1 with M. tuberculosis H37Rv growth inhibition, please?
Output: > 100 µM

Input: Reported IC90 for M. tuberculosis H37Rv growth inhibition, given C=CCn1c(O)c(C(CC)=Nc2ccc3c(c2)CCC3)c(=O)[nH]c1=O ?
Output: > 100 µM

Input: Record lookup: for M. tuberculosis H37Rv growth inhibition, what IC90 belongs to COc1ccc(C(CCNCc2ccc(F)cc2)c2ccc(F)cc2)cc1 (centres undefined) ?
Output: 6.62 µM
